B1: CPEB3 Ribozyme (parent)
chain: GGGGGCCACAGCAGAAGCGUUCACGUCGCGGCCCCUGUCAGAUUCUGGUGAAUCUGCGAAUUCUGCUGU

Variants of: B1
Assay: self-cleavage, relative activity (ratio to wild type); higher = more cleavage; co-transcriptional
REPORTED_ENDPOINT: self-cleavage
Kindly provide the number alone.

SEQ_TEXT: GGGGGCCACAGCAGAAGCGGUCACGUCGCGGCCCCUGUCAGAUUCUGGUGAAUCUGCGGAUUCUGCUGU [U20G A59G]
self-cleavage: 0.204

SEQ_TEXT: GGGGGCCACAGCAGAAGCGUUCACGUCGCGGCCCAUGUCAGAUUCUUGUGAAUCUGCGAAUUCUGCUGU [C35A G47U]
self-cleavage: 0.259

SEQ_TEXT: GGGGGCCACAGCUGAAGCGUUCACGUCGUGGCCCCUGUCAGAUUCUGGUGAAUCUGCGAAUUCUGCUGU [A13U C29U]
self-cleavage: 0.138

SEQ_TEXT: GGGGGCCACAGCAGAAGCGUUCACGUCGCGCCCCCUGUCAAAUUCUGGUGAAUCUGCGAAUUCUGCUGU [G31C G41A]
self-cleavage: 0.201

SEQ_TEXT: GGGGGCCACAGCAGAAGCGCUCACGUCGCGGCCCCUGUCAGAUUCUGGUGAAUCUGCGAAUUCUGCUGU [U20C]
self-cleavage: 0.222

SEQ_TEXT: GGGGGCCACAGCAGAAACGUUCACGUCGCGGCCCCGGUCAGAUUCUGGUGAAUCUGCGAAUUCUGCUGU [G17A U36G]
self-cleavage: 0.117

SEQ_TEXT: GGGGGCCACAGCCGAAGCGUUCACGUCGCGGCCCCUGUCAUAUUCUGGUGAAUCUGCGAAUUCUGCUGU [A13C G41U]
self-cleavage: 0.349

SEQ_TEXT: GGGGGCCACAGCAGAAGCGUUCACGUCGCGACCCCUGUCAGAAUCUGGUGAAUCUGCGAAUUCUGCUGU [G31A U43A]
self-cleavage: 0.59

SEQ_TEXT: GGGGGCCACAGCAGAAGCGAUCACGUCGCGGCCCCUGUCAGAUUCUGGUGAAUCUGCGAAUUCAGCUGU [U20A U64A]
self-cleavage: 0.326

SEQ_TEXT: GGGGGCCACAGCAGAAGCGUUCACGUCGCGGCCCCUGUCAGAUUCUGGUCAAUCUGCUAAUUCUGCUGU [G50C G58U]
self-cleavage: 0.995

Prompt: Fill blank: measured self-cleavage of the variant GGGGGCCACAGCAGAAGCGUUCACGUCGCGGCCCCUGUCAGAUUCUUGUGAAUCUGCGAAUUCUGCUGC [G47U U69C] is ____.
Response: 1.06

Prompt: Ok, now GGGGCCCACAGCAGAAACGUUCACGUCGCGGCCCCUGUCAGAUUCUGGUGAAUCUGCGAAUUCUGCUGU [G5C G17A]
Response: 0.0588

Prompt: Ok, now GGGGGCCACAGCAGAAGCGUUCACGUCGCGGCCCCUUUCAGAUUCUGGUGAAUCUGCGAACUCUGCUGU [G37U U61C]
Response: 0.21

Prompt: Ok, now GGGGGCCACAGCAGAAGCGUUCACGUCGCGGCCCCUGUCAGAUUCUGGUGAACCUGCGAAUUCAGCUGU [U53C U64A]
Response: 0.525

Prompt: Ok, now GGGGGCCACAGCAGACGCGUUCACGUCGCGGCCCCUGUCCGAUUCUGGUGAAUCUGCGAAUUCUGCUGU [A16C A40C]
Response: 0.118

Prompt: Ok, now GGGGGCCACAGCAGAAGCGUUCAGGUCGCGGUCCCUGUCAGAUUCUGGUGAAUCUGCGAAUUCUGCUGU [C24G C32U]
Response: 0.435

Prompt: Ok, now GGGGGCCACAGCAGAAGCGGUCACGUCGCGGCCCCUGUCAGAUUCUGGUGAAUCUGCGAAUUUUGCUGU [U20G C63U]
Response: 0.246

Prompt: Ok, now GGGGGCCACAGCAGAAGCUUUCACGUCGCGGCUCCUGUCAGAUUCUGGUGAAUCUGCGAAUUCUGCUGU [G19U C33U]
Response: 0.519

Prompt: Ok, now GGGGGCCACAGCAGAAGCCUUCACGUCGCGGCCCCUGUCAGAUUCUGGUGAAUCUGCGAAUUCUGCUGC [G19C U69C]
Response: 0.357

Prompt: Ok, now GGAUGCCACAGCAGAAGCGUUCACGUCGCGGCCCCUGUCAGAUUCUGGUGAAUCUGCGAAUUCUGCUGU [G3A G4U]
Response: 0.0692

Prompt: Ok, now GGGGGCCACAGCAGUAGCGUUCACGUCGCGGCCACUGUCAGAUUCUGGUGAAUCUGCGAAUUCUGCUGU [A15U C34A]
Response: 0.513
